- SYSTEM: SARS-CoV-2 Receptor Binding Domain (RBD) protein (SARS-CoV-2)
- TEST NAME: SPR (Carterra LSA), scFv captured via anti-V5, RBD as analyte, 1:1 fit
QUANTITY: koff (s⁻¹)
API: value field is a number in s⁻¹; no unit string.

So, COVID19_P11_D08 (scFv, V domains shown) VH: QVQLVQSGAEVKKPGASVKVSCKASGYTFTENEMHWVRQAPGQGLEWMGIINPSGGSTSYAQKFQGRVTMTRDTSTSTVYMELSSLRSEDTAVYYCARDSGVDTATLRYYYYGMDVWGQGTTVTVSS VL: DIQMTQSPSSLSASVGDRVTITCQASQDISKYLNWYQQKPGKAPKLLIYGASTLSDGVPSRFSGSGSGTDFTLTISSLQPEDFATYYCQQGYSTPYSFGQGTKLEIKR ? Its koff was 0.00053

So, COVID19_P24_F11 (scFv, V domains shown) VH: EVQLLESGGGLVQPGGSLRLSCAASGFTFSGSAMHWVRQAPGKGLEYVSAISRNGGTTYYADSVKGRFTISRDNSKNTLYLQMNSLRAEDTAVYYCAKDGTLITTTLDYWGQGTLVTVSS VL: DIQMTQSPSSLSASVGDRVTITCRASQSIGYYLNWYQQKPGKAPKLLIYAASSLQSGVPSRFSGSGSGTDFTLTISSLQPEDFATYYCQQSYTTPLTFGGGTKVEIKR ? Its koff was 0.00028

So, COVID19_P11_H07 (scFv, V domains shown) VH: QVQLVQSGAEVKKPGASVKVSCKASGYTFTSYDINWVRQAPGQGLEWMGWMNSNSGSTGYAQKFQGRVTMTRDTSTSTVYMELSSLRSEDTAVYYCARGWMAYDAFDIWGQGTMVTVSS VL: DIQMTQSPSSLSASVGDRVTITCQASQSIYNYLNWYQQKPGKAPKLLIYDASNLETGVPSRFSGSGSGTDFTLTISSLQPEDFATYYCQQAISFPLTFGGGTKVEIKR ? Its koff was 5.7e-05

So, COVID19_P24_C10 (scFv, V domains shown) VH: QVQLVQSGAEVKKPGASVKVSCKASGYTFTENEMHWVRQAPGQGLEWMGIINPSGGSTSYAQKFQGRVTMTRDTSTSTVYMELSSLRSEDTAVYYCARDSGVDTATLRYYYYGMDVWGQGTTVTVSS VL: DIQMTQSPSSLSASVGDRVTITCQASQDISKYLNWYQQKPGKAPKLLIYGASTLSDGVPSRFSGSGSGTDFTLTISSLQPEDFATYYCQQGYSTPYSFGQGTKLEIKR ? Its koff was 0.000487

So, COVID19_P11_D12 (scFv, V domains shown) VH: QVQLVQSGAEVKKPGASVKVSCKASGYTFTENEMHWVRQAPGQGLEWMGIINPSGGSTSYAQKFQGRVTMTRDTSTSTVYMELSSLRSEDTAVYYCAKTRYGGNSRSRYYYYGMDVWGQGTTVTVSS VL: DIQMTQSPSSLSASVGDRVTITCRASQHISSYLNWYQQKPGKAPKLLIYAASALQSGVPSRFSGSGSGTDFTLTISSLQPEDFATYYCQQGYGTPYTFGQGTKVEIKR ? Its koff was 0.00034

So, COVID19_P24_B09 (scFv, V domains shown) VH: QVQLVQSGAEVKKPGSSVYVSCKASGYTFTSYGISWVRQAPGQGLEWMGGIIPMFGTTNYAQKFQGRVTITADKSTSTAYMELSSLRSEDTAVYYCARDRGDTIDYWGQGTLVTVSS VL: DIQMTQSPSSLSASVGDRVTITCRASQGISNNLNWYQQKPGKAPKLLIYAASSLESGVPSRFSGSGSGTDFTLTISSLQPEDFATYYCQQGNGFPLTFGPGTKVDIKR ? Its koff was 0.0139

So, COVID19_P24_H04 (scFv, V domains shown) VH: QVQLVQSGAEVKKPGASVKVSCKASGYTFTDYHMHWVRQAPGQGLEWMGWMNPNSGNTSYAQKFQGRVTMTRDTSTSTVYMELSSLRSEDTAVYYCAGMGMGRDGYNSRAFDIWGQGTMVTVSS VL: DIQMTQSPSSLSASVGDRVTITCRASQSISTYLNWYQQKPGKAPKLLIYAASTLQSGVPSRFSGSGSGTDFTLTISSLQPEDFATYYCQQSYSMPLTFGQGTKVEIKR ? Its koff was 0.00068
